Target: Steroid 17-alpha-hydroxylase/17,20 lyase (Homo sapiens)
Sequence (P05093 whole entry): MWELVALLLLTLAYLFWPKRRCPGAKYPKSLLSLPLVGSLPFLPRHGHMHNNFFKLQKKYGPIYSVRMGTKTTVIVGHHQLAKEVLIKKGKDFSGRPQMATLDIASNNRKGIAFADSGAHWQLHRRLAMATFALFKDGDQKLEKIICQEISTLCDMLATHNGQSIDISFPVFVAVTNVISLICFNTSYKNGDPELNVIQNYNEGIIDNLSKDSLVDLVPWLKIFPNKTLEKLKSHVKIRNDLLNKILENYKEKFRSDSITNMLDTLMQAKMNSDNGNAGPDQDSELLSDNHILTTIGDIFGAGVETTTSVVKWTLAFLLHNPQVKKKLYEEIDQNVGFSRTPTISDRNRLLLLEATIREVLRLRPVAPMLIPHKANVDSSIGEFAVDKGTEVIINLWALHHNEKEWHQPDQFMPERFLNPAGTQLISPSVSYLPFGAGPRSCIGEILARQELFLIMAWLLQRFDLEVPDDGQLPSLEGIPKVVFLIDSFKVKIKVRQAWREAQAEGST
Format: functional
pIC50: −log10 of the molar value.
Assay Endpoint: pIC50

>>> df
                                   compound  assay_endpoint  readout_relation  reported_measurement
0  Nc1ccc(C23CC2C(=O)N(CC2CCCCC2)C3=O)cc1 (stereo in doubt; (+)-1h)           pIC50                 <                  4.47
1  CCC1(c2ccc(N)cc2)CCC(=O)NC1=O (configuration not stated) [AMINOGLUTETHIMIDE]           pIC50                 =                  4.22
